TESTED_TARGET: METTL3/14 (Homo sapiens (Human), UniProt Q86U44)
Sequence (Q86U44 whole entry): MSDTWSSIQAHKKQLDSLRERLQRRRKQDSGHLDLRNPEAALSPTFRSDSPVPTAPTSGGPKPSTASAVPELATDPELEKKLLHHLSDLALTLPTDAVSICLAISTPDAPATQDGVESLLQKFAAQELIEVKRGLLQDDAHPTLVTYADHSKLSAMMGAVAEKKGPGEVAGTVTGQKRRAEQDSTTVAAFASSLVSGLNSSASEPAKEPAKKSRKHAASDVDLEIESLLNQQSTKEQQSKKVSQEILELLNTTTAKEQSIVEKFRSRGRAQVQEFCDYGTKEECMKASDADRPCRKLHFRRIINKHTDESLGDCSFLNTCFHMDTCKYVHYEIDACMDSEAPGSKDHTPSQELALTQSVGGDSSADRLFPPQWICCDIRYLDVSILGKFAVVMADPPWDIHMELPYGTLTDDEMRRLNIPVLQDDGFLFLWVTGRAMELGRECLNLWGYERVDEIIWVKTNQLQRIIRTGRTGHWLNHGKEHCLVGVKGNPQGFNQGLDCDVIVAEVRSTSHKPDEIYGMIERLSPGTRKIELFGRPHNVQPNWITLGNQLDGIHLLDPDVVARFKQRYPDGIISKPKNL
Sequence (Q9HCE5 whole entry partner): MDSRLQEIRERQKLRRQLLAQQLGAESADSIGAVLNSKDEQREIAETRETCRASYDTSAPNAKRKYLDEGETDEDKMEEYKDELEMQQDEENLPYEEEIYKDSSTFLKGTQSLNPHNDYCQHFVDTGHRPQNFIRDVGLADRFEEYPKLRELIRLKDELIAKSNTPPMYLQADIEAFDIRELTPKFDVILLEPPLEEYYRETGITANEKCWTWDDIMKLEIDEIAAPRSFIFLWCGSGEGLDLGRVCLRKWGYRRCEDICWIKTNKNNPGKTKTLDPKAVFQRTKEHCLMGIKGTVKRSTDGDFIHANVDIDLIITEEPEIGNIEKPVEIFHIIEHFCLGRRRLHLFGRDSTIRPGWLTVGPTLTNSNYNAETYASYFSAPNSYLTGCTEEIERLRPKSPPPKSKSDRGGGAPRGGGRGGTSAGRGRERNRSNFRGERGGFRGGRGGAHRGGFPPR
ASSAY_OVERVIEW: METTL3/14 methyltransferase assay (RapidFire mass spectrometry, RFMS)
CONDITION_CONTEXT: 5 nM METTL3/14, 0.2 μM RNA substrate, 0.5 μM SAM, 60 minutes at room temperature
pIC50: −log10 of the molar value.

| COMPOUND_STRING | pIC50 |
| --- | --- |
| Nc1ncnc2c1c(Br)cn2[C@@H]1C[C@H](c2ccc3[nH]c(CNCC45CC(F)(C4)C5)cc3c2)[C@@H](O)[C@H]1O | 8.08 |
| Nc1ncnc2c1c(-c1cc[nH]n1)cn2[C@@H]1O[C@H](/C=C/CCCNCC23CC(F)(C2)C3)[C@@H](O)[C@H]1O | 8.21 |
| Nc1ncnc2c1c(Cl)cn2[C@@H]1C[C@H](c2ccc3cc(CNCC45CC(F)(C4)C5)[nH]c3c2)[C@@H](O)[C@H]1O | 8.21 |
| Nc1ncnc2c1c(Br)cn2[C@@H]1C[C@H](c2ccc(CCNCC34CC(F)(C3)C4)cc2)[C@@H](O)[C@H]1O | 7.33 |
| Nc1ncnc2c1c(Br)cn2[C@@H]1O[C@H](/C=C/CCNCc2ccccc2)[C@@H](O)[C@H]1O | 6.50 |
| Nc1ncnc2c1c(Br)cn2[C@@H]1O[C@H](/C=C/CCCNCC2CCC2)[C@@H](O)[C@H]1O | 7.37 |
| Nc1ncnc2c1c(Br)cn2[C@@H]1O[C@H](/C=C/CCCNCC23CC(F)(C2)C3)C[C@H]1O | 8.02 |
